Target Of Assay: T1, PABPN1 (Homo sapiens, UniProt Q86U42 Q86U42:1-306)
T1 sequence: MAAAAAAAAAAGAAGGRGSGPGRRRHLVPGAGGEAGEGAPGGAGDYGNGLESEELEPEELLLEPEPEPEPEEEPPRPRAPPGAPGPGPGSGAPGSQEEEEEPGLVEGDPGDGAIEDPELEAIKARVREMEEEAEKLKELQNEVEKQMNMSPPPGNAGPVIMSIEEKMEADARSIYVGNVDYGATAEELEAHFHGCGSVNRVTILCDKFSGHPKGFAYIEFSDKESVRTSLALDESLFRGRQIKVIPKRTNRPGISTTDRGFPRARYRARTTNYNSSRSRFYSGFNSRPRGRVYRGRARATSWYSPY
Method Summary: SPR; Biacore T200, biotin capture, from kinetics at 0.6-1 uM protein
Conditions Used: tags: GST fusion (pGEX6P-1), E. coli BL21(DE3), benzonase treated; label: 5' BiotinTEG
Experimental: SPR experiments were conducted on a Biacore T200 using the Biotin Capture Kit Series S following the manufacturer's instructions (GE). Biotin capture reagent was applied to the sensor chip at a flow rate of 2 μl/minute for 300 seconds. 1 nM biotinylated RNA (BiotinTEG-[…]; SEQ ID NO: 25) was captured at a flow rate of 10 μl/minute for 180 seconds. Samples were flowed across the sensor chip at 50 μl/minute for 120 seconds and the chip was regenerated for 120 seconds at a flow rate of 10 μl/minute.
Quantity Measured: Kd (nM)

>>> data_value("AAAAAAAAAAAAAAA (ssRNA) [biotin-poly(A)15]")
237
